Value source: patent US8815857B2

Recorded measurements of solubility, one per entry
Assay: Assessment of solubility: HT solubility in pION buffer, UV spectrophotometry
Conditions: pION system solution buffer, pH 7.4, pH 7.4, aqueous buffer, kinetic from dmso stock, Solubility (pH 7.4), pH 7.4 buffer, 16-19 h incubation, 1.0% DMSO

Cc1ccc(OCc2ccc(CN(C)CC3CCOCC3)cc2C)c(-c2csc(N3CCC(C(=O)O)CC3)n2)c1	> 67 µg/mL

Record `Cc1ccc(OCc2ccc(CN3CCOCC3)cc2OC(F)(F)F)c(-c2csc(N3CCC(C(=O)O)CC3)n2)c1` . Reported solubility: 41 µg/mL

solubility reading for `Cc1cc(CN2CCS(=O)(=O)CC2)ccc1COc1ccccc1-c1csc(N2CCC(C(=O)O)CC2)n1` : > 160 µg/mL

Entry `Cc1ccc(OCc2ccc(CNCC(C)(C)O)cc2C)c(-c2csc(N3CCC(C(=O)O)CC3)n2)c1` ; solubility = > 63 µg/mL

Measured solubility, Cc1ccc(OCc2ccc(CN3CCS(=O)(=O)CC3)cc2C)c(-c2csc(N3CC4CCC(C3)C4C(=O)O)n2)c1 (stereo not shown) : > 59 µg/mL

Field solubility (entry `CNC(=O)C1CCN(Cc2ccc(COc3c(C)cccc3-c3csc(N4CCC(C(=O)O)CC4)n3)c(C)c2)CC1` ) reads > 57 µg/mL

Recorded solubility (compound Cc1cc(CN2CCS(=O)(=O)CC2)ccc1COc1ccc(Cl)cc1-c1csc(N2CC3CCC(C2)C3C(=O)O)n1 (stereo not shown) ): 17 µg/mL
